Test system: EfPiwi piRISC loaded with L1MC piRNA (26 nt)
Test: pre-steady-state target cleavage rate (min^-1); auxiliary factor: 500 nM Ephydatia muelleri Gtsf1; guide: L1MC piRNA 5'p-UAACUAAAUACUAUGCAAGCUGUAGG; higher = faster piRNA-guided slicing of the target
List of pre-steady-state target cleavage rate values.

Sequence	Comparison sign	pre-steady-state target cleavage rate
UCCUGGAUGUGCUUGCAUAGUAUUUAGUUUA	=	0.00801
UCCUGGAACAGCUUGCAAAGUAUUUAGUUA	=	0.0333
UCCUGGAUCAGCUUGCAUAAUAUUUAGUUA	=	0.0108
UCCUGGAUGUGCUUGUAUAGUAUUUAGUUA	=	0.0218
UCCUGGAACAGCUUGCAAAGUAUUAAGUUA	=	0.00406
UCCUGGAACAGCUCGCAUAGUAUUUAGUUA	=	0.0171
UCCUGCUACAGCUUGCUUAGUAUUUAGUUA	=	0.0201
UCCUCCUACAGCUUGCAUAAUAUUUAGUUA	=	0.00664
UCCUGGAUGUGCUUCGCAUAGUAUUUAGUUA	=	0.0132
UCCUGGAACAGGUUGCAUAGUAUUUAGAUA	=	0.00362
UCCUCCAACAGCUUGCAUAGUAUUUAGUUA	=	0.113
UCCUGGUACAGCUUGCAUAGUAUUUAUUUA	=	0.00732
UCCUGGAUGAGCUUGCAUAGUAUUAAGAAA	=	0.004
UCCUGCUACUGCUUGCAUAGUAUAUAGUUA	=	0.00619
UCCUGGAACAGCUUGCUAUAGUAUUUAGUUA	=	0.00682
UCCUGGAUGUCGAACCAUGGUAUUUAGUUA	<	0.0001
UCCUGGAUGUCCUUGCAUAGUAUUUAGAUUA	=	0.00316
UCCUCCUACAGGCUUGCAUAGUAUUUAGUUA	=	0.0234
UCCUGGAACACCUAGCAUAGUAUUUAGUUA	=	0.00601
UCCUCCUACUAGCUUGCAUAGUAUUUAGUUA	=	0.127
UCCUGGUACACCUAGCAUAGUAUUUAGUUA	=	0.00319
UCCUGGAUGAGCUUUGCAUAGUAUUUAGUUA	=	0.0107
UCCUCCUACAGCUUGCAUAGUAGUUUAGUUA	=	0.0131
UCCUGGUACACCUUGCAUAGUAAUUAGUUA	=	0.00464
UCCUCCUACAACUUGCAUAGUAUUUAGUUA	=	0.0806
UCCUGCUACAGCUUGGAUAGAAUUUAGUUA	=	0.0053
UCCUGGAACAGCUUGCAUAGUAUUUAGUGUA	=	0.00557
UCCUGCUACAGCAUGCAUAGUAUUUAGAAA	=	0.00416

* * *

Tested on: MILI (PIWIL2) piRISC loaded with piRNA #1 (26 nt);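 note: 1 nM active piRISC with 0.1 nM target library at 33 °C single turnover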
Experiment: pre-steady-state target cleavage rate (min^-1); guide: piRNA #1 5'p-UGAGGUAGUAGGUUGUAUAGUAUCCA; MIWI and MILI are mouse PIWI proteins and EfPiwi is from a freshwater sponge; tags in brackets are library labels; higher = faster piRNA-guided slicing of the target
Details: auxiliary factor: 500 nM mouse GTSF1
The entries below are paired with their reported pre-steady-state target cleavage rate.

Sequence	Test system	Comparison sign	pre-steady-state target cleavage rate
GGAGACCUAUGAUAUGUACCUACUACCCA	MILI (PIWIL2) piRISC loaded with piRNA #1 (26 nt)	<	0.0001
GGAGACCUAACUAUACAACCUACUACGACA	MILI (PIWIL2) piRISC loaded with piRNA #1 (26 nt)	=	0.118
GGAGACGUUACUAUACAACGUACUACCUCA	MILI (PIWIL2) piRISC loaded with piRNA #1 (26 nt)	=	0.0206
GGAGUGGAUACUAUACUUGCUACUACCUCA	MILI (PIWIL2) piRISC loaded with piRNA #1 (26 nt)	=	0.0633
GGAGACCUAUCUAUACAACCUACAAGCUCA	MILI (PIWIL2) piRISC loaded with piRNA #1 (26 nt)	=	0.0435
GGAGACCUAUCUAUUCAACCUACUACCACA	MILI (PIWIL2) piRISC loaded with piRNA #1 (26 nt)	=	0.144
GGAGACCUAUGAUAACAACCUACUACCUCG [g2:g16:cont:t1G]	MILI (PIWIL2) piRISC loaded with piRNA #1 (26 nt)	=	0.00536
GGAGACCUAUGAAUACUACCUACUACCACA	MILI (PIWIL2) piRISC loaded with piRNA #1 (26 nt)	=	0.00343
GGAGUGAGAUACUAUACAACCUACUACCUCA	MILI (PIWIL2) piRISC loaded with piRNA #1 (26 nt)	=	0.189
GGAGACCUUACAUUACAACCUACUACCUCA	MILI (PIWIL2) piRISC loaded with piRNA #1 (26 nt)	=	0.0294
GGAGACCUUAGUAUACAUCCUACUACCUCA	MILI (PIWIL2) piRISC loaded with piRNA #1 (26 nt)	=	0.126
GGAGACCUAACUAAACAACCUACAACCUCA	MILI (PIWIL2) piRISC loaded with piRNA #1 (26 nt)	=	0.131
GGAGACCAUACUAUACAACGUACUACCACA	MILI (PIWIL2) piRISC loaded with piRNA #1 (26 nt)	=	0.0309
GGAGACCUAUCUAUACAACCUGCUACCUCA	MILI (PIWIL2) piRISC loaded with piRNA #1 (26 nt)	=	0.0162
GGAGACCUUACAUAACAACCUACUACCUCA	MILI (PIWIL2) piRISC loaded with piRNA #1 (26 nt)	=	0.013
GGAGACCAUACUAUACAUGGUACUACCUCA	MILI (PIWIL2) piRISC loaded with piRNA #1 (26 nt)	=	0.00626
GGAGACCUAACUAUACAACCUACUAGCUCA	MILI (PIWIL2) piRISC loaded with piRNA #1 (26 nt)	=	0.0915
GGAGACCUAUCUAUACAACGUACUACGUCA	MILI (PIWIL2) piRISC loaded with piRNA #1 (26 nt)	=	0.00657
GGAGACGAUACUAUACAACCUACUAUCUCA	MILI (PIWIL2) piRISC loaded with piRNA #1 (26 nt)	=	0.149
GGAGACCUAUGAUAACAUCCUACUACCUCA	MILI (PIWIL2) piRISC loaded with piRNA #1 (26 nt)	=	0.00447
GGAGACCUAUCUAAACAACCUACAACCUCA	MILI (PIWIL2) piRISC loaded with piRNA #1 (26 nt)	=	0.0563
GGAGACGAUACUAUACAACCUACUACCUCG [g2:g24:cont:t1G]	MILI (PIWIL2) piRISC loaded with piRNA #1 (26 nt)	=	0.183
GGAGACCUUACUAAAGAACCUACUACCUCA	MILI (PIWIL2) piRISC loaded with piRNA #1 (26 nt)	=	0.105
GGAGACCUAUGUUAUACAACCUACUACCUCA	MILI (PIWIL2) piRISC loaded with piRNA #1 (26 nt)	=	0.104
GGAGUGGAUACUAUACAACCUACUAGCUCA	MILI (PIWIL2) piRISC loaded with piRNA #1 (26 nt)	=	0.0481
GGAGACCUAUGAUAUGAACCUACUAUCUCA	MILI (PIWIL2) piRISC loaded with piRNA #1 (26 nt)	<	0.0001
GGAGUGGAUACUAUACUACCUACUUCCUCA	MILI (PIWIL2) piRISC loaded with piRNA #1 (26 nt)	=	0.0121
